target: human sigma 1 receptor (Homo sapiens); construct: expressed in transfected cells; host or cells: HEK-293; assay: Human sigma 1 receptor radioligand assay ([3H](+)-pentazocine, transfected HEK-293 membranes); type: binding; conditions: 5 nM [3H](+)-pentazocine, transfected HEK-293 membranes, 37° C., 120 minutes; read-out: Ki
Sequence (Q99720 whole entry): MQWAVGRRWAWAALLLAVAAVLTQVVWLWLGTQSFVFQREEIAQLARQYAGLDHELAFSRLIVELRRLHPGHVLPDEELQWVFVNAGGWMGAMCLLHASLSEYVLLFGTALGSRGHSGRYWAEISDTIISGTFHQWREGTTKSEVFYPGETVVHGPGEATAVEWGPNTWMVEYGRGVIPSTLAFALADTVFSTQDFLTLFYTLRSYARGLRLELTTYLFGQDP
measurement_kind: Ki (nM)
// note: answer is a bare numeric in nM

For record Cl.Clc1ccc(-c2nnn3c2CO[C@@H]2CN(CCC4CCOCC4)C[C@H]23)c(Cl)c1 [Example 54, hydrochloride] the listed Ki is 71.4

For record Cl.Fc1ccc(-c2nnn3c2CO[C@@H]2CN(Cc4ccoc4)C[C@H]23)cc1 (racemic) [Example 21, hydrochloride] the listed Ki is 16.6

For record Cl.FC(F)(F)c1ccc(-c2nnn3c2CO[C@H]2CN(C4CCOCC4)C[C@@H]23)c(Cl)c1 [Example 55, hydrochloride] the listed Ki is 23.3

###

assay: Kinetic solubility; format: physicochemical; conditions: buffered aqueous solution, pH 7.4, aqueous buffer, kinetic from dmso stock, buffered aqueous solution at pH=7.4, 10 μL of 10 mM DMSO solution in 1 mL, stirred 4 hours, supernatant by liquid chromatography; read-out: Kin. Solub.
Record form. Attribute: solubility at 4 h. Fill in for each entry.

For record Cl.Fc1ccccc1-c1nnn2c1CO[C@@H]1CN(C[C@@H]3CCOC3)C[C@H]12 [Example 16] the listed solubility at 4 h is > 10 µM

For record Cc1cc(CN2C[C@@H]3OCc4c(-c5ccc(F)cc5F)nnn4[C@H]3C2)c(C)o1.Cl [Example 22] the listed solubility at 4 h is > 10 µM

For record Cl.Fc1ccc(-c2nnn3c2CO[C@@H]2CN(C4CCOCC4)C[C@H]23)cc1 [Example 5] the listed solubility at 4 h is > 10 µM

For record Cl.Fc1ccc(-c2nnn3c2CO[C@@H]2CN(Cc4ccoc4)C[C@H]23)c(F)c1 [Example 63] the listed solubility at 4 h is > 10 µM

For record FC(F)(F)c1ccc(-c2nnn3c2COC2CN(Cc4ccccc4)C[C@H]23)cc1 (some centres unmarked) [reference compound] the listed solubility at 4 h is < 0.4 µM

For record CCOc1ccc(CN2C[C@@H]3OCc4c(-c5ccccc5F)nnn4[C@H]3C2)cn1.Cl [Example 20] the listed solubility at 4 h is > 10 µM

For record Cl.Fc1ccccc1-c1nnn2c1CO[C@@H]1CN(C[C@H]3CCOC3)C[C@H]12 [Example 18] the listed solubility at 4 h is > 10 µM

For record Cl.Fc1ccc(-c2nnn3c2CO[C@H]2CN(CCC4CCOCC4)C[C@@H]23)c(F)c1 [Example 41] the listed solubility at 4 h is > 10 µM

For record Clc1ccc(-c2nnn3c2CO[C@@H]2CN(Cc4ccccc4)C[C@H]23)c(Cl)c1 [reference compound] the listed solubility at 4 h is 7.8 µM

For record Cl.Fc1ccc(-c2nnn3c2CO[C@@H]2CN(CCC4CCOCC4)C[C@H]23)c(Cl)c1 [Example 47] the listed solubility at 4 h is > 10 µM

For record Cc1occc1CN1C[C@@H]2OCc3c(-c4ccc(F)cc4F)nnn3[C@H]2C1.Cl [Example 61] the listed solubility at 4 h is > 10 µM

For record Cl.Fc1ccc(-c2nnn3c2CO[C@@H]2CN(C4CCOCC4)C[C@H]23)c(F)c1 [Example 28] the listed solubility at 4 h is > 10 µM

For record Fc1ccc(-c2nnn3c2CO[C@@H]2CN(Cc4ccccc4)C[C@H]23)cc1 [reference compound] the listed solubility at 4 h is 1.82 µM

For record COc1ccc(-c2nnn3c2CO[C@H]2CN(Cc4ccccc4)C[C@@H]23)cc1 [reference compound] the listed solubility at 4 h is 2.1 µM

For record Cl.Clc1ccc(-c2nnn3c2CO[C@@H]2CN(C[C@H]4CCOC4)C[C@H]23)c(Cl)c1 [Example 57] the listed solubility at 4 h is > 10 µM

For record Cl.c1ccc(CN2C[C@@H]3OCc4c(-c5ccccn5)nnn4[C@H]3C2)cc1 [Example 33] the listed solubility at 4 h is > 10 µM

For record Cc1cc(CN2C[C@@H]3[C@@H](C2)OCc2c(-c4ccc(F)cc4F)nnn23)c(C)o1.Cl [Example 23] the listed solubility at 4 h is > 10 µM

For record Fc1ccc(CN2C[C@@H]3OCc4c(-c5ccccc5F)nnn4[C@H]3C2)cc1 [reference compound] the listed solubility at 4 h is 3.08 µM

For record COc1ccc(CN2C[C@@H]3OCc4c(-c5ccc(F)cc5F)nnn4[C@H]3C2)cn1.Cl [Example 52] the listed solubility at 4 h is > 10 µM

For record Cl.Fc1ccccc1-c1nnn2c1CO[C@H]1CN(C3CCOCC3)C[C@@H]12 [Example 6] the listed solubility at 4 h is > 10 µM

For record Cl.Fc1ccccc1-c1nnn2c1CO[C@H]1CN(C[C@@H]3CCOC3)C[C@@H]12 [Example 17] the listed solubility at 4 h is > 10 µM

For record Cl.Fc1ccc(-c2nnn3c2CO[C@@H]2CN(Cc4ccc(F)nc4)C[C@H]23)c(Cl)c1 [Example 39] the listed solubility at 4 h is > 10 µM

For record Cl.Fc1ccc(CN2C[C@@H]3[C@@H](C2)OCc2c(-c4ccccn4)nnn23)cc1 [Example 24] the listed solubility at 4 h is > 10 µM

For record CCOc1ccc(CN2C[C@@H]3[C@@H](C2)OCc2c(-c4ccccc4F)nnn23)cn1.Cl [Example 19] the listed solubility at 4 h is > 10 µM

For record COc1ccc(CN2C[C@@H]3OCc4c(-c5ccc(F)cc5Cl)nnn4[C@H]3C2)cn1.Cl [Example 50] the listed solubility at 4 h is > 10 µM

For record Cl.Clc1ccc(-c2nnn3c2CO[C@H]2CN(C4CCOCC4)C[C@@H]23)c(Cl)c1 [Example 46] the listed solubility at 4 h is > 10 µM
